These measurements were taken from ChEMBL document CHEMBL4330109.

# Test system: Paracoccus sp.
# assay name: Anti-biofilm activity against Paracoccus sp. 4M6 assessed as inhibition of bacterial adhesion incubated for 15 hrs at 20 degC by Syto 61 dye based fluorimetric assay
# Type: functional, organism-based
# run parameters: Paracoccus sp. (in: a-proteobacteria), 4M6, 15 h
pEC50: −log10 of the molar value.
// reported pEC50 per item

Solved entries:
>>> print(df.to_string())
                                smiles_text  target_or_test_system  quantity_measured  reported
0  CN(C)CCOc1ccc(CCn2cc(CNCc3cn(CCc4ccc(OCCN(C)C)c(Br)c4)nn3)nn2)cc1Br         Paracoccus sp.              pEC50    < 3.70
1  CN(C)CCCOc1ccc(CCn2cc(CNCc3cn(CCc4ccc(OCCCN(C)C)c(Br)c4)nn3)nn2)cc1Br         Paracoccus sp.              pEC50    < 3.70
2  COc1ccc(CCn2cc(COCc3cn(CCc4ccc(OC)c(Br)c4)nn3)nn2)cc1Br         Paracoccus sp.              pEC50      3.78

What does the record list as pEC50 for "CN(C)CCOc1ccc(CCn2cc(-c3cccc(-c4cn(CCc5ccc(OCCN(C)C)c(Br)c5)nn4)c3)nn2)cc1Br" ?
< 3.70

Now give it for "Oc1ccc(CCn2cc(CCCCc3cn(CCc4ccc(O)c(Br)c4)nn3)nn2)cc1Br" too.
< 3.70

Now the molecule "CN(C)CCCOc1ccc(CCn2cc(CCCCc3cn(CCc4ccc(OCCCN(C)C)c(Br)c4)nn3)nn2)cc1Br"
< 3.70

Try this molecule next: "Oc1ccc(CCn2cc(COCc3cn(CCc4ccc(O)c(Br)c4)nn3)nn2)cc1Br"
3.70

Check "Oc1ccc(CCn2cc(CCCCCCc3cn(CCc4ccc(O)c(Br)c4)nn3)nn2)cc1Br" too.
< 3.70

Also "COc1ccc(CCn2cc(CNCc3cn(CCc4ccc(OC)c(Br)c4)nn3)nn2)cc1Br" ?
3.71

Request: "CN(C)CCCOc1ccc(CCn2cc(-c3cccc(-c4cn(CCc5ccc(OCCCN(C)C)c(Br)c5)nn4)c3)nn2)cc1Br"
< 3.70

Okay, and "CN(C)CCOc1ccc(CCn2cc(COCc3cn(CCc4ccc(OCCN(C)C)c(Br)c4)nn3)nn2)cc1Br" ?
3.84

Another molecule to check: "COc1ccc(CCn2cc(-c3cccc(-c4cn(CCc5ccc(OC)c(Br)c5)nn4)c3)nn2)cc1Br"
< 3.70

Could you do the same for "CN(C)CCCOc1ccc(CCn2cc(COCc3cn(CCc4ccc(OCCCN(C)C)c(Br)c4)nn3)nn2)cc1Br" , please?
< 3.70

Quick one: "CN(C)CCCOc1ccc(CCn2cc(CCCCCCc3cn(CCc4ccc(OCCCN(C)C)c(Br)c4)nn3)nn2)cc1Br"
< 3.70
